tested on: V-C8 + BRCA2 (BRCA2-proficient hamster cells); test: normalised cell viability (fraction of plate median); higher = more viable cells (less toxic); conditions: treatment time: 6 days; 5 µM
In all, about 1,300 compounds were measured (“normalised cell viability”: median about 1, lowest 2% from about 0.15 on). For the sample, the lowest values were picked, then their nearest neighbours and some compounds at random.
reported_endpoint: normalised cell viability
Give bare numbers.

OC[C@H]1O[C@@H](Oc2ccc(O)cc2)[C@H](O)[C@@H](O)[C@@H]1O [Arbutin]	0.979
Nc1ccn([C@@H]2CS[C@H](CO)O2)c(=O)n1 [Lamivudine]	0.406
COc1ccc2cc(CCC(C)=O)ccc2c1 [Nabumetone]	1.02
O=C(NCCO[N+](=O)[O-])c1cccnc1 [Nicorandil]	1.11
O=C1C=CC(=O)c2c1ccc1c2ccc2ccccc21 [Chrysene-1,4-quinone]	1
CO[C@H]1C[C@H](O[C@H]2[C@H](C)[C@@H](O[C@@H]3O[C@H](C)C[C@H](N(C)C)[C@H]3OC(C)=O)[C@@H](C)C[C@@]3(CO3)C(=O)[C@H](C)[C@@H](OC(C)=O)[C@@H](C)[C@@H](C)OC(=O)[C@@H]2C)O[C@@H](C)[C@@H]1OC(C)=O [Troleandomycin]	1.06

Kindly review the next molecule as well.
Query block: // lookup normalised cell viability for CC=CC1=C(C(=O)O)N2C(=O)[C@@H](NC(=O)[C@H](N)c3ccc(O)cc3)[C@H]2SC1 [Cefprozil]
Result block: 0.908

---

test system: V-C8 + BRCA2 (BRCA2-proficient hamster cells); test: normalised cell viability (fraction of plate median); higher = more viable cells (less toxic); conditions: treatment time: 3 days; 5 µM
Structures can show the parent of a compound that is named as a salt. Over roughly 1,300 compounds, “normalised cell viability” has its median near 1; the lowest 2% begin near 0.15. This excerpt belongs to a sample that is enriched for the lowest values.
reported_endpoint: normalised cell viability

Known results for molecules:
CC(C)c1c(C(=O)Nc2ccccc2)c(-c2ccccc2)c(-c2ccc(F)cc2)n1CC[C@@H](O)C[C@@H](O)CC(=O)O	0.701
CCCC1O[C@@H]2C[C@H]3[C@@H]4CCC5=CC(=O)C=C[C@]5(C)[C@H]4[C@@H](O)C[C@]3(C)[C@]2(C(=O)CO)O1 (stereo not given in full) [Budesonide]	0.952
COc1cc(OC)c(C(=O)CCCN2CCCC2)c(OC)c1 [Buflomedil hydrochloride]	1.04
CCCCCCC[N+](CC)(CC)CCCCc1ccc(Cl)cc1 [Clofilium tosylate]	0.897
CC1CC(OC(=O)c2ccccc2O)CC(C)(C)C1 (stereo not given) [Homosalate]	1.03

Take each entry in turn and give its normalised cell viability.
1. O=C1CC2(CCCC2)CC(=O)N1CCCCN1CCN(c2ncccn2)CC1 [Buspirone hydrochloride]
2. COc1cccc2c1C(=O)c1c(O)c3c(c(O)c1C2=O)C[C@@](O)(C(=O)CO)C[C@@H]3O[C@H]1C[C@H](N)[C@H](O)[C@H](C)O1 [Doxorubicin hydrochloride]
3. CN1CCCN=C1/C=C/c1cccs1 [Pyrantel tartrate]
4. c1ccc2c(c1)CCCc1cc(NCCN3CCOCC3)nnc1-2
5. CC(C)n1c(/C=C/C(O)CC(O)CC(=O)O)c(-c2ccc(F)cc2)c2ccccc21 (stereo not given) [Fluvastatin sodium salt]
6. CC[C@H](C)C(=O)O[C@H]1C[C@H](O)C=C2C=C[C@H](C)[C@H](CC[C@@H](O)C[C@@H](O)CC(=O)O)[C@H]21

Result block:
0.997
0.12
1.04
0.803
0.134
0.969

Take each entry in turn and give its normalised cell viability.
1. CC(=O)[C@@]12O[C@](C)(c3ccccc3)O[C@@H]1C[C@H]1[C@@H]3CCC4=CC(=O)CC[C@]4(C)[C@H]3CC[C@@]12C [Algestone acetophenide]
2. Nc1nc(NC2CC2)c2ncn([C@H]3C=C[C@@H](CO)C3)c2n1 [Abacavir Sulfate]
3. CC(C)COCC(CN(Cc1ccccc1)c1ccccc1)N1CCCC1 (stereo not given) [Bepridil hydrochloride]
4. CC[C@H](C)C(=O)O[C@H]1C[C@@H](C)C=C2C=C[C@H](C)[C@H](CC[C@@H]3C[C@@H](O)CC(=O)O3)[C@H]21

Result block:
0.968
1.04
0.938
0.19

---

system: V-C8 + BRCA2 (BRCA2-proficient hamster cells); test: normalised cell viability (fraction of plate median); higher = more viable cells (less toxic); conditions: treatment time: 3 days; 5 µM
Whole data set: some 1,300 compounds, median “normalised cell viability” near 1, cut for the lowest 2% near 0.15. Only a selection was taken, and the lowest values are over-represented in it overall.
reported_endpoint: normalised cell viability
Numbers only.

Known results for compounds:
CC(=O)N(CC(O)CN(C(C)=O)c1c(I)c(C(=O)NCC(O)CO)c(I)c(C(=O)NCC(O)CO)c1I)c1c(I)c(C(=O)NCC(O)CO)c(I)c(C(=O)NCC(O)CO)c1I (centres undefined)	0.975
Nc1ccc(S(=O)(=O)Nc2ccnn2-c2ccccc2)cc1	1.07
C[C@@H]1CN(c2c(F)c(N)c3c(=O)c(C(=O)O)cn(C4CC4)c3c2F)C[C@H](C)N1	1.03

Kindly review the next compound as well.
Query block: // lookup normalised cell viability for CCC1NC(=O)c2cc(S(N)(=O)=O)c(Cl)cc2N1 (centres undefined)
Result block: 0.989

---

tested on: V-C8 + BRCA2 (BRCA2-proficient hamster cells); assay: normalised cell viability (fraction of plate median); higher = more viable cells (less toxic); details: treatment time: 3 days; 5 µM
Where a name gives a salt, the structure may show the parent alone. The full ranking holds about 1,300 compounds; the median of “normalised cell viability” is about 1, and the lowest 2% start at about 0.15. Many of the other results were omitted from the sample, so the lowest values are more common in it than they were.
Decision: normalised cell viability beneath 1 gives true; normalised cell viability meeting or exceeding 1 gives false.

Query block: Does this compound meet the criterion normalised cell viability < 1? CC(C(=O)O)c1ccc2c(c1)[nH]c1ccc(Cl)cc12 (configuration not stated) [Carprofen]
Result block: false

Query block: Does this compound meet the criterion normalised cell viability < 1? COCCCC/C(=N\OCCN)c1ccc(C(F)(F)F)cc1 [Fluvoxamine maleate]
Result block: true

Query block: Does this compound meet the criterion normalised cell viability < 1? CCOC(=O)[N-]c1c[n+](N2CCOCC2)no1 [Molsidomine]
Result block: false

Query block: Does this compound meet the criterion normalised cell viability < 1? Nc1c2ccccc2nc2ccccc12 [Aminacrine]
Result block: true

Query block: Does this compound meet the criterion normalised cell viability < 1? CCN(CC)CCOC(=O)C1(c2ccc([N+](=O)[O-])cc2)CCCC1 [Nitrocaramiphen hydrochloride]
Result block: false

Query block: Does this compound meet the criterion normalised cell viability < 1? CCCCCCCCCCCCCCCC[N+](C)(C)CCN(Cc1ccc(OC)cc1)c1ncccn1 [Thonzonium bromide]
Result block: true

Query block: Does this compound meet the criterion normalised cell viability < 1? CN1CCN(CCCN2c3ccccc3Sc3ccc(S(=O)(=O)N(C)C)cc32)CC1 [Thioproperazine dimesylate]
Result block: true

Query block: Does this compound meet the criterion normalised cell viability < 1? CO[C@@]1(NC(=O)CSCC#N)C(=O)N2C(C(=O)O)=C(CSc3nnnn3C)CS[C@@H]21 [Cefmetazole sodium salt]
Result block: true

Query block: Does this compound meet the criterion normalised cell viability < 1? CO[C@H]1C[C@H](O[C@H]2[C@H](C)[C@@H](O[C@@H]3O[C@H](C)C[C@H](N(C)C)[C@H]3OC(C)=O)[C@@H](C)C[C@@]3(CO3)C(=O)[C@H](C)[C@@H](OC(C)=O)[C@@H](C)[C@@H](C)OC(=O)[C@@H]2C)O[C@@H](C)[C@@H]1OC(C)=O [Troleandomycin]
Result block: false

Query block: Does this compound meet the criterion normalised cell viability < 1? COC(=O)Nc1nc2ccc(SC(C)C)cc2[nH]1 [Methiazole]
Result block: true

Query block: Does this compound meet the criterion normalised cell viability < 1? Nc1c2c(nc3ccccc13)CCCC2 [Tacrine hydrochloride]
Result block: true

---

test system: V-C8 + BRCA2 (BRCA2-proficient hamster cells); assay: normalised cell viability (fraction of plate median); higher = more viable cells (less toxic); conditions: treatment time: 6 days; 5 µM
Counter-ions that a name gives are not always drawn. Over roughly 1,300 compounds, “normalised cell viability” has its median near 1; the lowest 2% begin near 0.15. This is one part of a sample in which the lowest values are shown more often than they occur.
So I've got a bunch of compounds here, and I need their normalised cell viability values.

CCOC(=O)c1ccc(N)cc1	0.958
CS(=O)(=O)c1ccc([C@@H](O)[C@@H](CO)NC(=O)C(Cl)Cl)cc1	0.927
Nc1c2c(nc3ccccc13)CCCC2 [Tacrine hydrochloride]	1.09
Cc1onc(-c2c(F)cccc2Cl)c1C(=O)N[C@@H]1C(=O)N2[C@@H]1SC(C)(C)[C@@H]2C(=O)O [Flucloxacillin sodium]	0.984
CC(C(=O)O)c1ccc2c(c1)[nH]c1ccc(Cl)cc12 (stereo not drawn)	1.04

Take each entry in turn and give its normalised cell viability.
1. CN1[C@@H]2CC[C@H]1C[C@@H](OC(=O)c1c[nH]c3ccccc13)C2 [Tropisetron HCl]
2. O=C1Cc2cc(CCN3CCN(c4nsc5ccccc45)CC3)c(Cl)cc2N1 [Ziprasidone Hydrochloride]
3. CC(=O)NC[C@H]1CN(c2ccc(N3CCOCC3)c(F)c2)C(=O)O1
4. Cc1cc2cc3c(C)cc(=O)oc3c(C)c2o1
5. CC(=O)[C@@]12O[C@](C)(c3ccccc3)O[C@@H]1C[C@H]1[C@@H]3CCC4=CC(=O)CC[C@]4(C)[C@H]3CC[C@@]12C [Algestone acetophenide]
6. O=C(O)CCC(=O)Nc1ccc(S(=O)(=O)Nc2nccs2)cc1

Result block:
1. 1.24
2. 0.23
3. 1.04
4. 0.818
5. 1.07
6. 1.04

Take each entry in turn and give its normalised cell viability.
1. CC(C)Oc1ccc2c(=O)c(-c3ccccc3)coc2c1
2. Cc1cc(-c2ccccc2)nnc1NCCN1CCOCC1 [Minaprine dihydrochloride]
3. CC(C)n1c(/C=C/C(O)CC(O)CC(=O)O)c(-c2ccc(F)cc2)c2ccccc21 (stereo not drawn) [Fluvastatin sodium salt]
4. NS(=O)(=O)c1cc(C2(O)NC(=O)c3ccccc32)ccc1Cl (stereo not drawn)
5. CC(=O)OC[C@H]1O[C@@H]([S-])[C@H](OC(C)=O)[C@@H](OC(C)=O)[C@@H]1OC(C)=O.CCP(CC)CC.[Au+]
6. C[C@H]1c2cccc(O)c2C(=O)C2=C(O)[C@]3(O)C(=O)C(C(N)=O)=C(O)[C@@H](N(C)C)[C@@H]3[C@@H](O)[C@@H]21 [Doxycycline hydrochloride]
7. O=C1CC2(CCCC2)CC(=O)N1CCCCN1CCN(c2ncccn2)CC1 [Buspirone hydrochloride]

Result block:
[1.08, 1.03, 0.155, 1.03, 0.128, 0.982, 1.08]
